Data provenance is patent EP2132185B1.

Measured pKi of individual entries
target: D2 receptor (Rattus norvegicus, UniProt P61169); construct: on rat brain striatal membrane preparation; assay: D2 receptor binding ([3H]spiperone, rat brain striatal membrane preparation); conditions: rat brain striatal membrane preparation, [3H]spiperone
Sequence (P61169 whole entry): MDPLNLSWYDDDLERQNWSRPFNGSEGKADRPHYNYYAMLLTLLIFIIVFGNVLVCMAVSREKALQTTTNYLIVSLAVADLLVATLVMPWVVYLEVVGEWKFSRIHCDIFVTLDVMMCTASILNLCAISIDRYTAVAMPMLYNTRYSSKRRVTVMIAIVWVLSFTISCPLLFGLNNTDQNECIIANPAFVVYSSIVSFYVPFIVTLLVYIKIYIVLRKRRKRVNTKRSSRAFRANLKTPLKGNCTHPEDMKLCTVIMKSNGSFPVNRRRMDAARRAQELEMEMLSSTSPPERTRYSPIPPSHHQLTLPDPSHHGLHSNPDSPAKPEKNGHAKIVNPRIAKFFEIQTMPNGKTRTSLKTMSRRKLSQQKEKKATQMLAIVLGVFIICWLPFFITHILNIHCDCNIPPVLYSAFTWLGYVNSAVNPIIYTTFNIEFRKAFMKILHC
pKi: −log10 of the molar value.

compound	pKi
CNc1nc(Cl)c(Cl)c(N2CCN(CCC3CCC(NC(=O)N(C)C)CC3)CC2)n1 (centres unmarked)	7.30 to 7.82

Record for CCC(=O)NC1CCC(CCN2CCN(c3nc(NC)nc(Cl)c3Cl)CC2)CC1 (centres unmarked) under target or system D2 receptor (Rattus norvegicus, UniProt P61169): pKi reported as 7.82 to 8.30

Item `CCNc1nc(Cl)c(Cl)c(N2CCN(CC[C@H]3CC[C@H](NC(C)=O)CC3)CC2)n1` ; assay system D2 receptor (Rattus norvegicus, UniProt P61169); pKi reported as 7.30 to 7.82

GET /values?item= `CNc1nc(Cl)c(Cl)c(N2CCN(CC[C@H]3CC[C@H](NC(N)=O)CC3)CC2)n1` &system= D2 receptor (Rattus norvegicus, UniProt P61169) returns pKi: 7.30 to 7.82

`CCNC(=O)N[C@H]1CC[C@H](CCN2CCN(c3nc(NC)nc(Cl)c3Cl)CC2)CC1` on D2 receptor (Rattus norvegicus, UniProt P61169) gives pKi = 7.82 to 8.30
